Reference for the values: patent EP0995757A2

target: yeast proteasome β2/β2' (Saccharomyces cerevisiae); assay: Proteasome assay, trypsin-like activity (fluorogenic substrate Bz-Phe-Val-Arg-AMC); type: biochemical; set-up: endogenous in cells; host or cells: Saccharomyces cerevisiae; details: Bz-Phe-Val-Arg-AMC 8 µM, inhibitor incubated 1 h at 37°C, Tris-buffer pH 7.5
pIC50: −log10 of the molar value. Where a SMILES comes first, the peptide text is derived from it.
Outcome Measure: pIC50

| Molecule | Recorded Number |
| --- | --- |
| CC(=O)N[C@@H](CCCNC(=N)N)C(=O)N[C@H](C(=O)N[C@H](C=O)CCCNC(=N)N)C(C)C [compound 2, Ac-Arg-Val-Arg-H] (Ac-Arg-Val-Arg-aldehyde) | 5.19 |
